Measured pIC50 accompanies every entry in the list below.
# System Under Test: UniProt P12931
# Sequence (P12931 whole entry): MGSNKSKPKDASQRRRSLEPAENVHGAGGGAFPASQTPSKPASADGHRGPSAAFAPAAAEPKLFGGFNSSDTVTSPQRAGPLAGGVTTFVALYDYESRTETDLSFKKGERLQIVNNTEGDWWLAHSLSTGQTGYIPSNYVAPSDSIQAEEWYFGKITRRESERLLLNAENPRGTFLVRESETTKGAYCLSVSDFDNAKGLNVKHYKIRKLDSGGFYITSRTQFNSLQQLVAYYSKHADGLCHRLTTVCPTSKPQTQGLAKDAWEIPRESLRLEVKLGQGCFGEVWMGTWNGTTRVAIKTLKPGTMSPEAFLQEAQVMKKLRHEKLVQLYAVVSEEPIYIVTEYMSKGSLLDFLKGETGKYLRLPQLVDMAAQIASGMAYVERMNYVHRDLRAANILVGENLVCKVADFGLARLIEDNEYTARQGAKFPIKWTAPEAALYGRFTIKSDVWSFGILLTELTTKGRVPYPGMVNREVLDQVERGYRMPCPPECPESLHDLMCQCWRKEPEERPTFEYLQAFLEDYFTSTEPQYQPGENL
# Experimental Protocol: Src Kinase Assay (ELISA or Delfia format, cdc2 substrate peptide)
# Experimental Setup: read-out: Src enzyme IC50
pIC50 is defined as minus the log10 of a concentration measured in mol/L.

Some compounds with known pIC50 results, for comparison:
CCN1CCN(CCOc2cc3ncc(C#N)c(Nc4cc(OC)c(Cl)cc4Cl)c3cc2OC)CC1; 8.44
CCN1CCC(COc2cc3ncc(C#N)c(Nc4cc(OC)c(Cl)cc4Cl)c3cc2OC)CC1; 8.68
CCOc1cc2c(Nc3cc(OC)c(Cl)cc3Cl)c(C#N)cnc2cc1OCCC1CCN(C)CC1; 8.72
COc1cc(Nc2c(C#N)cnc3cc(OCCN4CCN(C)CC4)c(OC)cc23)c(Cl)cc1Cl; 8.40
CCOc1cc2c(Nc3cc(OC)c(Cl)cc3Cl)c(C#N)cnc2cc1OCCCN1CCN(CC)CC1; 9.07
CCOc1cc2c(Nc3cc(OC)c(Cl)cc3Cl)c(C#N)cnc2cc1OCCCC1CCN(C)CC1; 8.85
CCOc1cc2c(Nc3cc(OC)c(Cl)cc3Cl)c(C#N)cnc2cc1OCCN1CCN(C)CC1; 8.82

What pIC50 value was documented for this compound, "CCOc1cc2c(Nc3cc(OC)c(Cl)cc3Cl)c(C#N)cnc2cc1OCC1CCN(C)CC1" ?
8.68

----------
Property Name: melting point

CCOc1cc2c(Nc3cc(OC)c(Cl)cc3Cl)c(C#N)cnc2cc1OCCN1CCN(C)CC1 [Example 13]; 141 to 143 °C

Find the recorded melting point belonging to CCOc1cc2c(Nc3cc(OC)c(Cl)cc3Cl)c(C#N)cnc2cc1OCCCN1CCN(C)CC1 [Example 9] and report it.
137 to 138 °C

Look at this molecule and give its reported melting point. COc1cc(Nc2c(C#N)cnc3cc(OCCN4CCN(C)CC4)c(OC)cc23)c(Cl)cc1Cl [Example 3]
165 to 167 °C

Sample CCOc1cc2c(Nc3cc(OC)c(Cl)cc3Cl)c(C#N)cnc2cc1OCCC1CCN(C)CC1 [Example 14] — what was its melting point?
174 to 176 °C

So what does the record say about melting point for CCOc1cc2c(Nc3cc(OC)c(Cl)cc3Cl)c(C#N)cnc2cc1OCCCC1CCN(C)CC1 [Example 12] ?
148 to 151 °C

Which melting point reading was recorded for the molecule CCN1CCC(COc2cc3ncc(C#N)c(Nc4cc(OC)c(Cl)cc4Cl)c3cc2OC)CC1 [Example 8] ?
192 to 195 °C

Please give the measured melting point for this molecule: CCOc1cc2c(Nc3cc(OC)c(Cl)cc3Cl)c(C#N)cnc2cc1OCC1CCN(C)CC1 [Example 10]
182 to 186 °C

Please give the measured melting point for this molecule: CCN1CCN(CCOc2cc3ncc(C#N)c(Nc4cc(OC)c(Cl)cc4Cl)c3cc2OC)CC1 [Example 4]
101 to 105 °C

Need melting point of CCOc1cc2c(Nc3cc(OC)c(Cl)cc3Cl)c(C#N)cnc2cc1OCCCN1CCN(CC)CC1 [Example 11] , thanks.
127 to 130 °C

----------
# Tested on: Rat2 fibroblasts stably transformed with v-Src/Hu c-Src fusion gene
# Experimental Protocol: Anchorage Independent Src-transformed Fibroblast Proliferation Assay
# Format: cell-based
# Experimental Setup: Rattus norvegicus, src dependent suspension growth, MTS, read-out: Src cells IC50
Property Name: pIC50
The meaning of pIC50 here: minus log10 of the concentration in molar units.

Worked set:
CCOc1cc2c(Nc3cc(OC)c(Cl)cc3Cl)c(C#N)cnc2cc1OCC1CCN(C)CC1; 6.75
COc1cc(Nc2c(C#N)cnc3cc(OCCCN4CCN(C)CC4)c(OC)cc23)c(Cl)cc1Cl; 7.00
CCN1CCN(CCOc2cc3ncc(C#N)c(Nc4cc(OC)c(Cl)cc4Cl)c3cc2OC)CC1; 6.22
COc1cc(Nc2c(C#N)cnc3cc(OCCN4CCN(C)CC4)c(OC)cc23)c(Cl)cc1Cl; 6.42
CCOc1cc2c(Nc3cc(OC)c(Cl)cc3Cl)c(C#N)cnc2cc1OCCN1CCN(C)CC1; 6.84

What does the data say about its pIC50? Entry: "CCOc1cc2c(Nc3cc(OC)c(Cl)cc3Cl)c(C#N)cnc2cc1OCCC1CCN(C)CC1"
6.57

# lookup: pIC50 of "CCCN1CCN(CCCOc2cc3ncc(C#N)c(Nc4cc(OC)c(Cl)cc4Cl)c3cc2OC)CC1"
6.80

Query (compound): "CCOc1cc2c(Nc3cc(OC)c(Cl)cc3Cl)c(C#N)cnc2cc1OCCCC1CCN(C)CC1" ; field requested: pIC50
7.02
